system: H1975; assay: Lung cancer cell proliferation suppression, H1975; assay type: cell-based; details: Homo sapiens, NCI-H1975; 72 hours after treatment, CellTiter-Glo
Recorded measurements of GI50, one per entry

Worked examples, 2 compounds total:
entry_smiles: C=CC(=O)Nc1cc(Nc2cc(N3OCC[C@@H]3c3ccccc3)ncn2)c(OC)cc1N1CCN(C2CCN(C)CC2)CC1
GI50: 13 nM

entry_smiles: C=CC(=O)Nc1cc(Nc2cc(N3OCC[C@@H]3c3cc(F)cc(F)c3)ncn2)c(OC)cc1N1CCC(N(C)C)CC1
GI50: 1 nM

Now, please, on to the next compound.
Fill blank: measured GI50 of the compound `C=CC(=O)Nc1cc(Nc2cc(N3OCC[C@@H]3c3ccccc3)ncn2)c(OC)cc1N1CCC(N(C)C)CC1` is ____.
8 nM
